Recorded growth, one value per entry.
# System: SN12C renal
# Experimental details: NCI-60 one-dose screen, 48 h (100 = growth as untreated, 0 = no growth, -100 = all killed)
# Conditions used: 10 µM unless noted
About 83,000 compounds went through this panel and 20% of them were active in at least one assay; those are over-represented in the sample as a whole.
Measurement label: growth (%)

CC(C)(C)CC(C)(C)Cc1ccc(OCCOCC[N+](C)(C)Cc2ccccc2)cc1	8.79
COc1cc(C2=NN(c3ccccc3)C(c3cccc(Nc4ccnc5cc(C(F)(F)F)ccc45)c3)C2)cc(OC)c1OC (stereo not drawn)	97.1
COc1cc(C)ccc1Oc1nc(Nc2ccc(N3CCOCC3)cc2)ncc1N=Cc1cc(C(F)(F)F)cc(C(F)(F)F)c1	80.3
CCn1cc(C(=O)O)c(=O)c2cc(F)c(N3CCN(CC(=O)Nc4ccc(/C(C)=N/OC)cc4)CC3)cc21	101
N#Cc1ccc(N2Cc3cc(Cl)ccc3OC3=C2C(=O)N(Cc2ccccc2)C3=O)cc1	-39.5
CC(=O)Oc1c2c(nc3c1c1ccccc1n3Cc1ccccc1)-c1ccccc1C2	85.8
CC(C)C[C@H](C(=O)O)N(C)C(=O)[C@@H]1CCCN1C(=O)[C@H](C)OC(=O)[C@H](CCC(N)=O)NC(=O)[C@@H]1CCC(=O)N1	97.1
COc1cc(NC(=O)Nc2cnc(Nc3ccc(N4CCOCC4)cc3)nc2Oc2ccc(F)cc2)cc(OC)c1	61.8

Source: PubChem BioAssay (NCI)
